From: PubChem BioAssay (NCI)

test system: HCT-15 colon; test: NCI tumour cell line growth inhibition, 48 h

{"Molecule": "O/N=c1/ccn(O)c2ccccc12", "Target under test": "HCT-15 colon", "TGI": "5.21 µM"}
{"Molecule": "CCOC(=O)N1CCN(Cc2cc(=O)n3cc(C)ccc3n2)CC1", "Target under test": "HCT-15 colon", "TGI": "> 100 µM"}
{"Molecule": "CC(O)c1c2c(cc3c1CC1(C3)Cc3cc4c(c(C(C)O)c3C1)CCC4)CCC2 (stereo unspecified)", "Target under test": "HCT-15 colon", "TGI": "41.1 µM"}
{"Molecule": "Clc1ccccc1/C=C/c1nsc(/C=C/c2ccccc2Cl)n1", "Target under test": "HCT-15 colon", "TGI": "> 100 µM"}
{"Molecule": "S=c1[nH]nc(COc2ccc(Cl)cc2)o1", "Target under test": "HCT-15 colon", "TGI": "98.6 µM"}
{"Molecule": "COc1ccc(/C(=C/c2cc(OC)c(OC)c(OC)c2)[N+](=O)[O-])cc1", "Target under test": "HCT-15 colon", "TGI": "3.54 µM"}
{"Molecule": "COC(=O)[C@]12CC[C@@H](C)[C@H](C)[C@@H]1C1=CC[C@@H]3[C@@]4(C)CC(=O)[C@H](O)[C@@]5(C)COC(=C45)C[C@@]3(C)[C@]1(C)CC2", "Target under test": "HCT-15 colon", "TGI": "33.4 µM"}
{"Molecule": "CSCCC(NCc1c(O)ccc2ccc(=O)oc12)C(=O)O (stereo unspecified)", "Target under test": "HCT-15 colon", "TGI": "> 100 µM"}
{"Molecule": "Cc1nc2c(o1)C(=O)c1ccccc1C2=NC1CCCCC1N (stereo unspecified)", "Target under test": "HCT-15 colon", "TGI": "1.84 µM"}
{"Molecule": "Cc1cc(S(N)(=O)=O)c(SCc2nc(N)nc(N(C)C)n2)cc1Cl", "Target under test": "HCT-15 colon", "TGI": "> 10 µM"}
{"Molecule": "N#C/C(=C1\\N=C(c2ccccc2O)Oc2ccccc21)c1ccc([N+](=O)[O-])cc1", "Target under test": "HCT-15 colon", "TGI": "> 100 µM"}
{"Molecule": "O=C(O)C(CS)NCc1c2ccccc2[n+]([O-])c2ccccc12 (stereo unspecified)", "Target under test": "HCT-15 colon", "TGI": "> 100 µM"}
{"Molecule": "CC1=COC(=O)c2ccccc2N1", "Target under test": "HCT-15 colon", "TGI": "> 100 µM"}
{"Molecule": "Cc1cccc(/C=N/NC(=S)NCc2ccccn2)n1", "Target under test": "HCT-15 colon", "TGI": "> 100 µM"}
{"Molecule": "Cn1c(=O)n2n(c1=O)Cc1cccc3cccc(c13)C2", "Target under test": "HCT-15 colon", "TGI": "> 100 µM"}
{"Molecule": "O=C(Cc1ccccc1)NN1C(=O)C(Cl)C1c1cccc(O)c1 (stereo unspecified)", "Target under test": "HCT-15 colon", "TGI": "42.7 µM"}
{"Molecule": "Cc1cc(C)c(S(=O)(=O)N[C@@H](/C=C(\\Br)CO)C(C)C)c(C)c1", "Target under test": "HCT-15 colon", "TGI": "> 100 µM"}
{"Molecule": "O=C(c1ccc(Cl)cc1Cl)N(Cc1cccnc1)C(=S)N(Cc1cccnc1)C(=O)c1ccc(Cl)cc1Cl", "Target under test": "HCT-15 colon", "TGI": "15.4 µM"}
{"Molecule": "CC1=C2C(=O)O[C@@H](c3ccoc3)[C@]2(C)CCC1=O", "Target under test": "HCT-15 colon", "TGI": "> 100 µM"}
{"Molecule": "Cn1cc(-c2ccc(=O)n(Cc3cccc(-c4ncc(OCCN5CCOCC5)cn4)c3)n2)cn1", "Target under test": "HCT-15 colon", "TGI": "> 100 µM"}
{"Molecule": "Cc1cc(Br)cc(C)c1NC(=O)C(=O)CC(=O)c1sc(-n2nc(-c3ccccc3)cc2-c2ccccc2)nc1C", "Target under test": "HCT-15 colon", "TGI": "> 100 µM"}

====

system: SK-MEL-28 melanoma; assay: NCI tumour cell line growth inhibition, 48 h
Below: a set of entries, each annotated with reported TGI.
Measurement type: TGI

{"Compound": "O=c1c(Cl)nnc2sc3ccccc3n12", "Measurement type": "TGI", "Result": "> 100 µM"}
{"Compound": "COc1ccc(/C=C2\\CN(C(=O)CCN3CCC(=NO)CC3)C/C(=C\\c3ccc(OC)cc3)C2=O)cc1", "Measurement type": "TGI", "Result": "4.17 µM"}
{"Compound": "COc1ccc(-c2oc3cc(O)c(OC)c(O)c3c(=O)c2OC2OC(CO)C(O)C(O)C2O)cc1 (stereo unspecified)", "Measurement type": "TGI", "Result": "> 100 µM"}
{"Compound": "C1CCC([PH+](C2CCCCC2)C2CCCCC2[PH+](C2CCCCC2)C2CCCCC2)CC1.[Au].[CH-]1CCCCC1C1CCCC[N-]1 (stereo unspecified)", "Measurement type": "TGI", "Result": "1.79 µM"}
{"Compound": "CC(=O)N1c2ccccc2C(C)(C)OC1C(Cl)(Cl)Cl (stereo unspecified)", "Measurement type": "TGI", "Result": "> 100 µM"}
{"Compound": "CC(=O)Nc1ccc(Nc2cc(=O)n(C)c(=O)[nH]2)cc1", "Measurement type": "TGI", "Result": "> 100 µM"}
{"Compound": "O=C1C2=C(c3ccccc31)C(c1ccc(Cl)cc1)N1C(=O)CCSC1=N2 (stereo unspecified)", "Measurement type": "TGI", "Result": "> 100 µM"}
{"Compound": "CC(Cc1ccc(Cl)cc1Cl)NO (stereo unspecified)", "Measurement type": "TGI", "Result": "> 100 µM"}
{"Compound": "O=[N+]([O-])c1cccc(N=C2c3ccccc3CN2c2cccc([N+](=O)[O-])c2)c1", "Measurement type": "TGI", "Result": "> 100 µM"}
{"Compound": "COc1cc2c(cc1OC)C(=O)C(Br)CC2 (stereo unspecified)", "Measurement type": "TGI", "Result": "16.3 µM"}
{"Compound": "COc1cc(N(CCC#N)CCC#N)ccc1/C(N=Nc1ccc(C)cc1)=N/NC(=O)c1cc(Br)ccc1O", "Measurement type": "TGI", "Result": "85.2 µM"}
{"Compound": "COc1ccc2c(c1)c1nn(CCN(C)C)c3ccc4c(=O)n(CCN(C)C)c(=O)n2c4c13", "Measurement type": "TGI", "Result": "0.854 µM"}
{"Compound": "Cc1ccc(/C=C2\\N=C(N3CCCCC3)NC2=O)cc1", "Measurement type": "TGI", "Result": "> 100 µM"}
{"Compound": "O=C1CC2CC=C[C@H]3c4cc5c(cc4C(=O)N1C23)OCO5 (stereo partly specified)", "Measurement type": "TGI", "Result": "> 50 µM"}
{"Compound": "O=C(Nc1ccncc1)C(=O)c1cn(S(=O)(=O)c2ccc(Br)cc2)c2ccccc12", "Measurement type": "TGI", "Result": "> 100 µM"}
{"Compound": "CCOP(=O)(OCC)C1C(=O)O[C@H]2CCCC[C@@H]12 (stereo partly specified)", "Measurement type": "TGI", "Result": "> 100 µM"}
{"Compound": "Cn1nc(-c2ccccc2NC(=O)C(F)(F)F)c(=O)n(C)c1=S", "Measurement type": "TGI", "Result": "30.1 µM"}
{"Compound": "C=CC1C2=C(C(=O)NCC2)C2OC(O)C3=C(CCNC3=O)C2C1C (stereo unspecified)", "Measurement type": "TGI", "Result": "> 100 µM"}
{"Compound": "Cc1ccc(/C=C2\\CN(C)CC3C(c4ccc(C)cc4)=C(C#N)C(=O)NC23)cc1 (stereo unspecified)", "Measurement type": "TGI", "Result": "> 50 µM"}
{"Compound": "Cc1nc2c(o1)C(=O)c1ccccc1C2=NC1CCCCC1N (stereo unspecified)", "Measurement type": "TGI", "Result": "0.313 µM"}
{"Compound": "Cc1cc2c(C)c3cc(C)c(N)cc3nc2cc1N", "Measurement type": "TGI", "Result": "10.5 µM"}

====

test system: RXF-631 renal; experiment: NCI tumour cell line growth inhibition, 48 h
Below: a set of entries, each annotated with reported TGI.
Measurement type: TGI

{"Compound": "COc1c(OC(C)=O)ccc(/C=C2\\N=C(C)OC2=O)c1[N+](=O)[O-]", "Measurement type": "TGI", "Result": "> 100 µM"}
{"Compound": "CC1=C(C(=O)Nc2ccc([N+](=O)[O-])cc2)C(c2ccco2)C(C(=O)Nc2ccc([N+](=O)[O-])cc2)=C(C)N1", "Measurement type": "TGI", "Result": "> 100 µM"}
{"Compound": "C=CC1C2=C(C(=O)NCC2)C2OC(O)C3=C(CCNC3=O)C2C1C (configuration not stated)", "Measurement type": "TGI", "Result": "> 100 µM"}
{"Compound": "CCOC(=O)C1C=C2O[C@@H]3OC4(CCCCC4)O[C@@H]3C2[C@H]2C(=O)C=CC(=O)[C@@]12C(=O)OC (some centres not stated)", "Measurement type": "TGI", "Result": "51.8 µM"}
{"Compound": "CC(C)=CC(=O)CC(=O)C(=O)Nc1ccc(C)c(C)c1", "Measurement type": "TGI", "Result": "> 100 µM"}
{"Compound": "CCOC(=O)c1cccc(=O)c(C(=O)OCC)c1", "Measurement type": "TGI", "Result": "> 100 µM"}
{"Compound": "O=[N+]([O-])c1ccc(-c2ccc(/C=N/n3c(-c4ccc(Cl)cc4)n[nH]c3=S)o2)cc1", "Measurement type": "TGI", "Result": "> 55.5 µM"}
{"Compound": "CCOC(=O)/C(C1=N[C@H](C(=O)OCC)CS1)=C(\\C)O", "Measurement type": "TGI", "Result": "> 100 µM"}
{"Compound": "Cc1c(NC(=O)C(=O)N=NC(=O)c2ccncc2)c(O)c2ccccc2c1O", "Measurement type": "TGI", "Result": "> 100 µM"}
{"Compound": "Cc1cc(Br)cc(C)c1NC(=O)C(=O)CC(=O)c1sc(-n2nc(-c3ccccc3)cc2-c2ccccc2)nc1C", "Measurement type": "TGI", "Result": "> 100 µM"}
{"Compound": "CC1=C(C(=O)Nc2ccccc2)C(c2ccc3c(c2)OCO3)C(C(=O)Nc2ccccc2)=C(C)N1", "Measurement type": "TGI", "Result": "> 100 µM"}
{"Compound": "CC(Cl)(/C=C/Cl)C(Cl)/C=C/C(Cl)(CCl)CBr (configuration not stated)", "Measurement type": "TGI", "Result": "4.05 µM"}
